# target system: Cannabinoid receptor 2 (Homo sapiens)
# Sequence (P34972 whole entry): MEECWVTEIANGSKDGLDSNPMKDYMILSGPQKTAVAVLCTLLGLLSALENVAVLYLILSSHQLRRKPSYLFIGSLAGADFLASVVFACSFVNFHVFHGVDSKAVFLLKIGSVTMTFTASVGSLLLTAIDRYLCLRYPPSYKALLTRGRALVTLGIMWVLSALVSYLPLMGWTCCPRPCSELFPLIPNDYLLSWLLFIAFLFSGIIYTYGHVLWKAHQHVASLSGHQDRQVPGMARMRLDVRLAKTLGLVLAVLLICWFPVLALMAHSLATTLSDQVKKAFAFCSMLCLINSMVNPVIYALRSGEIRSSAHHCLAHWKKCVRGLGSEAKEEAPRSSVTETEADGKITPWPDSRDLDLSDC
pKi: −log10 of the molar value.
assay endpoint: pKi

1. CCCCOC(=O)Cc1cc(O)c2c(c1)OC(C)(C)[C@@H]1CC[C@@H](O)C[C@@H]21 | 6.36
2. CCCCOC(=O)Cc1cc(O)c2c(c1)OC(C)(C)[C@@H]1CC[C@H](O)C[C@@H]21 | 6.13
3. CCCCOC(=O)C(C)(C)c1cc(O)c2c(c1)OC(C)(C)[C@@H]1CC[C@@H](CO)C[C@@H]21 | 8.51

----------
# System: Rattus norvegicus
# experiment: Hypothermic activity in sc dosed Sprague-Dawley rat assessed as decrease in rectal body temperature measured over 6 hrs
# Format: functional
assay endpoint: ED50 (mg/kg)

1. CCCCOC(=O)C(C)(C)c1cc(O)c2c(c1)OC(C)(C)[C@@H]1CC=C(CO)C[C@@H]21 | 0.04
2. CCCCOC(=O)C(C)(C)c1cc(O)c2c(c1)OC(C)(C)[C@@H]1CC[C@@H](O)C[C@@H]21 | 0.74
3. CCCCOC(=O)C(C)(C)c1cc(O)c2c(c1)OC(C)(C)[C@@H]1CC[C@@H](CO)C[C@@H]21 | 0.04
4. CCCCCCC(C)(C)c1cc(O)c2c(c1)OC(C)(C)[C@@H]1CC=C(CO)C[C@@H]21 | 0.04

Where do these numbers come from? They come from ChEMBL document CHEMBL4425135.
